procedure_summary: tissue to plasma partition coefficients
measurement_setup: gut; In-house data; read-out: Kp Gut
property: Kp
Reply with just the number.

Query block: Recorded Kp of "COc1cc2c(c(OC)c1OC)-c1c(cc(OC)c(OC)c1OC)C[C@H](C)[C@H](C)C2" , please.
Result block: 210

* * *

procedure_summary: tissue to plasma partition coefficients
measurement_setup: spleen; In-house data; read-out: Kp Spleen
Text: All PBPK simulations were constructed using the population-based ADME(absorption, distribution, metabolism, and excretion) simulator (version 13.1.1, Simcyp® Ltd., Certara, Sheffield, UK).
property: Kp
Give the value as a plain number.

Query block: I would be grateful if you could share the reported Kp for "COc1cc2c(c(OC)c1OC)-c1c(cc(OC)c(OC)c1OC)C[C@H](C)[C@H](C)C2" .
Result block: 7.6

* * *

procedure_summary: tissue to plasma partition coefficients
measurement_setup: lung; In-house data; read-out: Kp Lung
property: Kp
Format: numeric value only, no unit, no commentary.

Query block: Name the reported Kp value associated with the compound "COc1cc2c(c(OC)c1OC)-c1c(cc(OC)c(OC)c1OC)C[C@H](C)[C@H](C)C2"
Result block: 19

* * *

procedure_summary: intrinsic clearance in human liver microsomes
Assay type: in vitro ADME
measurement_setup: In-house data, read-out: CLint,HLM
We begin with a simple list: items and their reported microsomal CLint.
Value expressed in µL/min/mg; do not type the unit.

COc1cc2c(c(OC)c1OC)-c1c(cc3c(c1OC)OCO3)CC(C)C(C)(O)C2OC(=O)c1ccccc1 (centres unmarked)	24

Now for a further compound.
Query block: Look at this compound and give its reported microsomal CLint. "COc1cc2c(c(OC)c1OC)-c1c(cc(OC)c(OC)c1OC)C[C@H](C)[C@H](C)C2"
Result block: 130

* * *

target_entity: CYP3A5 (Homo sapiens)
Sequence (P20815 whole entry): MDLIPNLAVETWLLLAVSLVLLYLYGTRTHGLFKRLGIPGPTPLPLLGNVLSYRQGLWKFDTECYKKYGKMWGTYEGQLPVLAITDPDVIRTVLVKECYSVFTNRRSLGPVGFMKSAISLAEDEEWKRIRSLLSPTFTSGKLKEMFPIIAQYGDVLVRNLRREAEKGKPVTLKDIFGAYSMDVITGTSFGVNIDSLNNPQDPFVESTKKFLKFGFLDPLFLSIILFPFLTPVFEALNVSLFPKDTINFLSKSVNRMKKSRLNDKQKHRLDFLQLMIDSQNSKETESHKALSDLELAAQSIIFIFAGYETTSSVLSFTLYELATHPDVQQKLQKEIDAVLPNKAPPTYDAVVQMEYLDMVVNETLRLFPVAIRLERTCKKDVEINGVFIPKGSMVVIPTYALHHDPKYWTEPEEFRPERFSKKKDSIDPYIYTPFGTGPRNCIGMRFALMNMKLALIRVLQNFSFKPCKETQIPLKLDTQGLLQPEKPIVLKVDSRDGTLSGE
procedure_summary: Time-dependent inhibition (TDI) assay, testosterone-6β-hydroxylation, CYP3A5*1/*3 HLM with CYP3cide
Format: biochemical
measurement_setup: human, CYP3A5*1/*3 human liver microsomes with CYP3cide, probe testosterone (200 μM), with CYP3cide ([…]); CYP3A5; testosterone-6β-hydroxylation
property: kinact (s⁻¹)
Your answer is read as s⁻¹, so omit the unit and give the number.

Query block: Quick check: kinact of "COc1cc2c(c(OC)c1OC)-c1c(cc(OC)c(OC)c1OC)C[C@H](C)[C@H](C)C2" ?
Result block: 0.000233

* * *

procedure_summary: tissue to plasma partition coefficients
measurement_setup: heart; In-house data; read-out: Kp Heart
property: Kp

Query block: For "COc1cc2c(c(OC)c1OC)-c1c(cc(OC)c(OC)c1OC)C[C@H](C)[C@H](C)C2" , what is its reported Kp?
Result block: 39.5
